# experimental.target: Receptor tyrosine-protein kinase erbB-2 (Homo sapiens) (UniProt P04626)
# Sequence (P04626 whole entry, looked up): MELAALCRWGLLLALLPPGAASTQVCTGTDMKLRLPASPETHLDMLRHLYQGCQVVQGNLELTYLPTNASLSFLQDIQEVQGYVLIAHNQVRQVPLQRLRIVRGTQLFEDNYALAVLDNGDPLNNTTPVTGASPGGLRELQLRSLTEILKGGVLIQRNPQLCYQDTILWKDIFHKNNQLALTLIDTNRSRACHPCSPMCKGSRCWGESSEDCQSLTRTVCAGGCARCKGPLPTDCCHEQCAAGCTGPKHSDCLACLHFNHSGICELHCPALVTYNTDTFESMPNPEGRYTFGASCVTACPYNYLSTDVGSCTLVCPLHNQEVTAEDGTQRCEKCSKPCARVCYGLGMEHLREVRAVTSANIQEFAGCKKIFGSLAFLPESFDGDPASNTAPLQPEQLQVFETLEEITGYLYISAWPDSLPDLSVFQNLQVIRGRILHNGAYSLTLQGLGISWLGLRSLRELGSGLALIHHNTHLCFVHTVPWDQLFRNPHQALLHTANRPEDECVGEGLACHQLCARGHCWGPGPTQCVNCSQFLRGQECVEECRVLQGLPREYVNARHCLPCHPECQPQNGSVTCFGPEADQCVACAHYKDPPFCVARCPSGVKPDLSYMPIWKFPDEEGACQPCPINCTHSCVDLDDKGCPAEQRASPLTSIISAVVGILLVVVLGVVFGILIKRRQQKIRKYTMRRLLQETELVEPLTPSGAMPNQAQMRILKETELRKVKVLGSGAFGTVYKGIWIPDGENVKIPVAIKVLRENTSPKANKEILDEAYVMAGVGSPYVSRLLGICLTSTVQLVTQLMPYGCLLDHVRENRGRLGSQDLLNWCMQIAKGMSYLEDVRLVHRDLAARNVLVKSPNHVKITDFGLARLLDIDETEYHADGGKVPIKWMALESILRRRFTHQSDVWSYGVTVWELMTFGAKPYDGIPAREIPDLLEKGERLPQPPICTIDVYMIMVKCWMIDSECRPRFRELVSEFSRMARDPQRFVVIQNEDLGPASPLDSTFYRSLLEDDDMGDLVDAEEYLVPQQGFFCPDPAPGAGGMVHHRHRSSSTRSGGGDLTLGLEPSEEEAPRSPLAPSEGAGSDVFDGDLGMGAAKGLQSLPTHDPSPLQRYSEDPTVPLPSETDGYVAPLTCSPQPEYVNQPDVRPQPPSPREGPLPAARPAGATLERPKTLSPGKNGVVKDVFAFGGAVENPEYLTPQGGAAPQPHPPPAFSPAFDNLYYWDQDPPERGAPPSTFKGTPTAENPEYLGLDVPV
# assay.info: reducers of endogenous Her2 protein level, primary screen, SKBR3 breast tumor cells, AlphaScreen, ATP viability (AID 461);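 also: lower value means less Her2 protein in the cells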
# conditions: 18-24 h, at 10 µM, active compounds read low
Threshold-based label: Her2 level under 90% gives fulfilled, Her2 level not under 90% gives not fulfilled.

Record excerpt, results attached:
> print(dat)
                                   molecule          label
1  OCCNCC(O)Cn1ccc2ccccc21 (configuration not stated)  not fulfilled
2    COc1ccccc1C(=O)n1nc(-c2ccc(Cl)cc2)nc1N      fulfilled
3  CC(Oc1ccc(Cl)cc1Cl)c1nc(-c2ccc(NC(=O)c3cccnc3)cc2)no1 (configuration not stated)      fulfilled
4              COc1ccc2ccccc2c1CN1CCN(C)CC1  not fulfilled
5  O=C(c1cnn2c(C(F)F)cc(C3CC3)nc12)N1CCOCC1  not fulfilled

Now let's try a different one.
Dear reviewer, please state whether CN(C)C(CN1C(=O)C2CC=CCC2C1=O)c1cn(C)c2ccccc12 (configuration not stated) has Her2 level strictly beneath 90%. fulfilled
